# assay-target: human full-length MKNK1 (Homo sapiens (Human), UniProt Q9BUB5, T344D)
# Sequence (Q9BUB5 other isoform, or with tags, fused parts or gaps T344D): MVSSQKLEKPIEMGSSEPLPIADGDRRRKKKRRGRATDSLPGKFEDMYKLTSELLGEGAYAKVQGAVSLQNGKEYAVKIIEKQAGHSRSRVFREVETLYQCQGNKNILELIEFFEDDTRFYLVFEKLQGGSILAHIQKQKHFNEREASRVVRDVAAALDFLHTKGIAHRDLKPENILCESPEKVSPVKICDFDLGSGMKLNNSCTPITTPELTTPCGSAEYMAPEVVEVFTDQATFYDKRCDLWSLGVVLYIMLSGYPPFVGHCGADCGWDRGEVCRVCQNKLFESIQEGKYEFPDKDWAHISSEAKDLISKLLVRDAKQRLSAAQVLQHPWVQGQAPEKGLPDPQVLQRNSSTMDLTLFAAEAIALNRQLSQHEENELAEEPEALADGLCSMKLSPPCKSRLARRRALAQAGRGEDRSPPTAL
# method-notes: MKNK1 kinase high ATP assay (TR-FRET)
# Type: biochemical
# conditions: high ATP (2 mM), 15 min preincubation with enzyme; read-out: MKNK1 IC50
# note: boundary value 0.02 µM maps to FALSE; IC50 below it maps to TRUE

Record excerpt, results attached:
molecule	group
C[C@@H]1COCCN1C(=O)[C@H]1CCc2c(sc3ncnc(Nc4ccn5nccc5c4)c23)C1 [Example 3]	FALSE
C[C@@H]1COCCN1C(=O)[C@H]1CCc2c(sc3ncnc(Nc4cc5ccnn5cc4Cl)c23)C1 [Example 77]	FALSE
CC1(O)CN(C(=O)[C@H]2CCc3c(sc4ncnc(Nc5ccn6nccc6c5)c34)C2)C1 [Example 30]	TRUE

Q. Item COc1cn2nccc2cc1Nc1ncnc2sc3c(c12)CC[C@H](C(=O)N1CCOC[C@@H]1C)C3 [Example 125] : IC50 beneath 0.02 µM, strictly?
A. TRUE

Q. I'd appreciate it if you could check whether COc1cn2nccc2cc1Nc1ncnc2sc3c(c12)CC[C@H](C(=O)N1C[C@H]2C[C@@H]1CN2C)C3 [Example 122] has IC50 smaller than 0.02 µM.
A. TRUE

Q. Just wondering, is IC50 of CCN(CCO)C(=O)[C@H]1CCc2c(sc3ncnc(Nc4cc5ccnn5cc4Cl)c23)C1 [Example 69] below 0.02 µM?
A. TRUE

Q. Confirm or reject: IC50 of N#CC1CN(C(=O)[C@H]2CCc3c(sc4ncnc(Nc5ccn6nccc6c5)c34)C2)C1 [Example 22] lies strictly below 0.02 µM
A. FALSE

Q. # TODO verify IC50 < 0.02 µM strictly for this molecule: C[C@H]1CN(C(=O)[C@H]2CCc3c(sc4ncnc(Nc5ccn6nccc6c5)c34)C2)C[C@H](C)O1 [Example 9]
A. FALSE

###

# assay-target: human full-length MKNK1 (Homo sapiens (Human), UniProt Q9BUB5, T344D)
# method-notes: MKNK1 kinase high ATP assay (TR-FRET)
# Type: biochemical
# conditions: high ATP (2 mM), 15 min preincubation with enzyme; read-out: MKNK1 IC50
In this section we review reported pIC50 values for a set of molecules.
Answer as the number alone; pIC50 is minus log10 of concentration in mol/L.

molecule	assay-target	pIC50
COc1cn2nccc2cc1Nc1ncnc2sc3c(c12)CC[C@H](C(=O)N(C)CCC(F)(F)F)C3 [Example 96]	human full-length MKNK1 (Homo sapiens (Human), UniProt Q9BUB5, T344D)	8.15

Q. Given CN1C[C@@H]2C[C@H]1CN2C(=O)[C@H]1CCc2c(sc3ncnc(Nc4ccn5nccc5c4)c23)C1 [Example 38] , state its recorded pIC50.
A. 7.60

Q. Which pIC50 is reported for this molecule? COc1cn2nccc2cc1Nc1ncnc2sc3c(c12)CC[C@H](C(=O)N1CCC(N(C)C)CC1)C3 [Example 109]
A. 9.00

###

Examples of molecules with documented log10 of IC50 follow.
# assay-target: human full-length MKNK1 (Homo sapiens (Human), UniProt Q9BUB5, T344D)
# method-notes: MKNK1 kinase high ATP assay (TR-FRET)
# Assay type: biochemical
# conditions: high ATP (2 mM), 15 min preincubation with enzyme; read-out: MKNK1 IC50
Kindly note that the scale is log10 and the underlying IC50 is in nM.

1) CN(CCNC(=O)OC(C)(C)C)C(=O)[C@H]1CCc2c(sc3ncnc(Nc4ccn5nccc5c4)c23)C1 1.11

Q. Report log10 of IC50 for CN1C[C@H]2C[C@@H]1CN2C(=O)[C@H]1CCc2c(sc3ncnc(Nc4cc5ccnn5cc4Cl)c23)C1 please.
A. 0.60

Q. Give the measured log10 of IC50 of COc1cn2nccc2cc1Nc1ncnc2sc3c(c12)CC[C@H](C(=O)NC(C)(C)C)C3 .
A. 0.60

Q. Dear colleague, I am looking for the recorded log10 of IC50 of the following molecule: C[C@@H]1CN(C(=O)[C@H]2CCc3c(sc4ncnc(Nc5ccn6nccc6c5)c34)C2)C[C@H](C)O1
A. 1.32

Q. I'd like to know its log10 of IC50. The molecule in question is CC(C)N(C)C(=O)[C@H]1CCc2c(sc3ncnc(Nc4cc5ccnn5cc4Cl)c23)C1
A. 1.08

Q. Please report the recorded log10 of IC50 for COCCN(C)C(=O)[C@H]1CCc2c(sc3ncnc(Nc4cc5ccnn5cc4OC)c23)C1 .
A. 0.00

Q. Field request: log10 of IC50 | item: O=C(NCCC(F)(F)F)[C@H]1CCc2c(sc3ncnc(Nc4cc5ccnn5cc4Cl)c23)C1
A. 1.54

Q. log10 of IC50 for CCN(CCN(C)C)C(=O)[C@H]1CCc2c(sc3ncnc(Nc4cc5ccnn5cc4Cl)c23)C1 ?
A. 1.48
